Origin of measurements: patent US9868766B2

# TARGET DESC: human Oxytocin (OTR) receptor (Homo sapiens)
# Construct: expressed in transfected cells
# Sequence (P30559 1-389): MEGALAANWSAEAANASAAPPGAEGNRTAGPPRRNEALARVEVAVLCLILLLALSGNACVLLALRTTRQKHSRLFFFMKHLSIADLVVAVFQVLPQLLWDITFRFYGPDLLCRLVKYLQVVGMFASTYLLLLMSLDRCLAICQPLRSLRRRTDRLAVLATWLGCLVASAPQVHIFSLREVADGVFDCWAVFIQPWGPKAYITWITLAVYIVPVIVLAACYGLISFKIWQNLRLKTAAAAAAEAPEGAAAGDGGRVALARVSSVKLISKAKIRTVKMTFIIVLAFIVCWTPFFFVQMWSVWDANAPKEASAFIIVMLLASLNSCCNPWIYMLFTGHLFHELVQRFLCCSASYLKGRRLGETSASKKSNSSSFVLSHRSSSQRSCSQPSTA
# MEASUREMENT DESCRIPTION: Calcium flux assay (FLIPR), agonist mode, CHO cells expressing human OTR
# Type: cell-based
# CONDITION LABEL: maximum response normalized to endogenous full agonist = 100%
Positions of bridges follow the written chain, without caps; N, C: chain ends. Non-standard residues stand in square brackets, D forms with d. Residues, ends and D or L forms follow the SMILES beside them. Sar = CNCC(=O)O
Each entry below carries its reported hOT efficacy (%).
Dear colleague, please return just the value in %, with no unit written.

COMPOUND	hOT efficacy (%)
CC[C@H](C)[C@@H]1NC(=O)[C@H](Cc2ccc(O)cc2)NC(=O)CNC(=O)CC[C@@H](C(=O)N[C@@H](C)C(=O)N[C@@H](C)C(=O)NCC(N)=O)NC(=O)[C@H](CC(N)=O)NC(=O)[C@H](CCC(N)=O)NC1=O [Example 16] (GYIQNEAAG-NH2; lactam N-6)	105

Please turn your attention to the following entry.
Task: # input compound: CC[C@H](C)[C@@H]1NC(=O)[C@H](Cc2ccc(O)cc2)NC(=O)CNC(=O)CC[C@@H](C(=O)N(C)CC(=O)N[C@@H](Cc2ccccc2)C(=O)NCC(N)=O)NC(=O)[C@H](CC(N)=O)NC(=O)[C@H](CCC(N)=O)NC1=O [Example 27] (GYIQNE[Sar]FG-NH2; lactam N-6) ; wanted: its hOT efficacy (%)
Output: 128

* * *

# TARGET DESC: human Oxytocin (OTR) receptor (Homo sapiens)
# MEASUREMENT DESCRIPTION: Calcium flux assay (FLIPR), agonist mode, CHO cells expressing human OTR
# CONDITION LABEL: CHO cells stably expressing human OTR; calcium flux; read-out: hOT EC50
pEC50: −log10 of the molar value. Positions of bridges follow the written chain, without caps; N, C: chain ends. Non-standard residues stand in square brackets, D forms with d. Residues, ends and D or L forms follow the SMILES beside them. Pip = O=C(O)[C@@H]1CCCCN1; Dap = NC[C@H](N)C(=O)O; Sar = CNCC(=O)O
Criterion: pEC50 meeting or surpassing 8. Met: 1 (yes). Not met: 0 (no).

Previously resolved entries follow.
COMPOUND	ANSWER LABEL
CC[C@H](C)[C@@H]1NC(=O)[C@H](Cc2ccc(O)cc2)NC(=O)CNC(=O)CC[C@@H](C(=O)N2CCC[C@H]2C(=O)NCC(=O)NCC(N)=O)NC(=O)[C@H](CC(N)=O)NC(=O)[C@H](CCC(N)=O)NC1=O [Example 7] (GYIQNEPGG-NH2; lactam N-6)	0 (no)
CC[C@H](C)[C@@H]1NC(=O)[C@H](Cc2ccc(O)cc2)NC(=O)CNC(=O)CC[C@@H](C(=O)N2CCC[C@H]2C(=O)N[C@H](C(=O)NCC(N)=O)C(C)C)NC(=O)[C@H](CC(N)=O)NC(=O)[C@H](CCC(N)=O)NC1=O [Example 19] (GYIQNEPVG-NH2; lactam N-6)	1 (yes)
CC[C@H](C)[C@@H]1NC(=O)[C@H](Cc2ccc(O)cc2)NC(=O)CNC(=O)CC[C@@H](C(=O)N(C)CC(=O)N[C@@H](CC(C)C)C(=O)NCC(N)=O)NC(=O)[C@H](CC(N)=O)NC(=O)[C@H](CO)NC1=O [Example 52] (GYISNE[Sar]LG-NH2; lactam N-6)	1 (yes)
CC[C@H](C)[C@@H]1NC(=O)[C@H](Cc2ccc(O)cc2)NC(=O)CNC(=O)CC[C@@H](C(=O)N(C)CC(=O)N[C@@H](CN)C(=O)NCC(N)=O)NC(=O)[C@H](CC(N)=O)NC(=O)[C@H](CCC(N)=O)NC1=O [Example 42] (GYIQNE[Sar][Dap]G-NH2; lactam N-6)	1 (yes)

Task: Quick check, pEC50 >= 8? CC[C@H](C)[C@@H]1NC(=O)[C@H](Cc2ccc(O)cc2)NC(=O)CNC(=O)CC[C@@H](C(=O)N2CCCC[C@H]2C(=O)N[C@@H](CC(C)C)C(=O)NCC(N)=O)NC(=O)[C@H](CC(N)=O)NC(=O)[C@H](CCC(N)=O)NC1=O [Example 47] (GYIQNE[Pip]LG-NH2; lactam N-6)
Output: 1 (yes)

* * *

# TARGET DESC: human V2 receptor (Homo sapiens, UniProt P30518)
# Sequence (P30518 whole entry): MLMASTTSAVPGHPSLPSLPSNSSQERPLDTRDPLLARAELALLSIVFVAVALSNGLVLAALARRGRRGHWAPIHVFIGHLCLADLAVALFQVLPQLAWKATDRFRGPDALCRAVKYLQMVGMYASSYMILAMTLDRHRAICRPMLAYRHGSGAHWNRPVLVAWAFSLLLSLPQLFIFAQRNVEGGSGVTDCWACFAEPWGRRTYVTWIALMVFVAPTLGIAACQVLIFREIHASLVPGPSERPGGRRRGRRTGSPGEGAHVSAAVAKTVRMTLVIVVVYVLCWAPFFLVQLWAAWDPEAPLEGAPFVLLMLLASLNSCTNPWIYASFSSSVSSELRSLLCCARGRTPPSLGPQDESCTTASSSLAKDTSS
# MEASUREMENT DESCRIPTION: Calcium flux assay (FLIPR), agonist mode, CHO cells expressing human V2 + Gqs5
# CONDITION LABEL: CHO cells stably expressing human V2 + chimeric Gqs5; calcium flux; read-out: hV2 EC50
Positions of bridges follow the written chain, without caps; N, C: chain ends. Non-standard residues stand in square brackets, D forms with d. Residues, ends and D or L forms follow the SMILES beside them. Phe(4-NH2) = Nc1ccc(C[C@H](N)C(=O)O)cc1; Sar = CNCC(=O)O
Each entry below carries its reported EC50.
Dear colleague, please return just the value in µM, with no unit written.

COMPOUND	ENDPOINT UNIT	OBS VALUE
CC[C@H](C)[C@@H]1NC(=O)[C@H](Cc2ccc(O)cc2)NC(=O)CNC(=O)CC[C@@H](C(=O)N(C)CC(=O)N[C@@H](Cc2ccc(N)cc2)C(=O)NCC(N)=O)NC(=O)[C@H](CC(N)=O)NC(=O)[C@H](CCC(N)=O)NC1=O [Example 1] (GYIQNE[Sar][Phe(4-NH2)]G-NH2; lactam N-6)	µM	4.8
CC[C@H](C)[C@@H]1NC(=O)[C@H](Cc2ccc(N)cc2)NC(=O)CNC(=O)CC[C@@H](C(=O)N(C)CC(=O)N[C@@H](CC(C)C)C(=O)NCC(N)=O)NC(=O)[C@H](CC(N)=O)NC(=O)[C@H](CCC(N)=O)NC1=O [Example 2] (G[Phe(4-NH2)]IQNE[Sar]LG-NH2; lactam N-6)	µM	7.91

Please turn your attention to the following entry.
Task: # input compound: CC[C@H](C)[C@H](NC(=O)CN(C)C(=O)[C@@H]1CCC(=O)NCC(=O)N[C@@H](Cc2ccc(O)cc2)C(=O)N[C@@H]([C@@H](C)CC)C(=O)N[C@@H](CCC(N)=O)C(=O)N[C@@H](CC(N)=O)C(=O)N1)C(=O)NCC(N)=O [Example 33] (GYIQNE[Sar]IG-NH2; lactam N-6) ; wanted: its EC50
Output: 3.82

* * *

# TARGET DESC: human V2 receptor (Homo sapiens, UniProt P30518)
# MEASUREMENT DESCRIPTION: Calcium flux assay (FLIPR), agonist mode, CHO cells expressing human V2 + Gqs5
# CONDITION LABEL: CHO cells stably expressing human V2 + chimeric Gqs5; calcium flux; read-out: hV2 EC50
Positions of bridges follow the written chain, without caps; N, C: chain ends. Non-standard residues stand in square brackets, D forms with d. Residues, ends and D or L forms follow the SMILES beside them. Hyp = O=C(O)[C@@H]1C[C@@H](O)CN1; aThr = C[C@H](O)[C@H](N)C(=O)O; Nle = CCCC[C@H](N)C(=O)O; Sar = CNCC(=O)O
METRIC: pEC50
pEC50 (log units): -log10 of the concentration in mol/L.

MOLECULE	pEC50
CC[C@H](C)[C@@H]1NC(=O)[C@H](Cc2ccc(O)cc2)NC(=O)CNC(=O)CC[C@@H](C(=O)N2C[C@H](O)C[C@H]2C(=O)N[C@@H](CC(C)C)C(=O)NCC(N)=O)NC(=O)[C@H](CC(N)=O)NC(=O)[C@H](CCC(N)=O)NC1=O [Example 45] (GYIQNE[Hyp]LG-NH2; lactam N-6)	5.42
CC[C@H](C)[C@@H]1NC(=O)[C@H](Cc2ccc(O)cc2)NC(=O)CNC(=O)CC[C@@H](C(=O)N(C)CC(=O)N[C@@H](CO)C(=O)NCC(N)=O)NC(=O)[C@H](CC(N)=O)NC(=O)[C@H](CCC(N)=O)NC1=O [Example 28] (GYIQNE[Sar]SG-NH2; lactam N-6)	5.38
CC[C@H](C)[C@@H]1NC(=O)[C@H](Cc2ccc(O)cc2)NC(=O)CNC(=O)CC[C@@H](C(=O)N(C)CC(=O)N[C@H](C(=O)NCC(N)=O)[C@H](C)O)NC(=O)[C@H](CC(N)=O)NC(=O)[C@H](CCC(N)=O)NC1=O [Example 25] (GYIQNE[Sar][aThr]G-NH2; lactam N-6)	5.42
CCCC[C@H](NC(=O)CN(C)C(=O)[C@@H]1CCC(=O)NCC(=O)N[C@@H](Cc2ccc(O)cc2)C(=O)N[C@@H]([C@@H](C)CC)C(=O)N[C@@H](CCC(N)=O)C(=O)N[C@@H](CC(N)=O)C(=O)N1)C(=O)NCC(N)=O [Example 40] (GYIQNE[Sar][Nle]G-NH2; lactam N-6)	5.66
CC[C@H](C)[C@@H]1NC(=O)[C@H](Cc2ccc(O)cc2)NC(=O)CNC(=O)CC[C@@H](C(=O)N(C)CC(=O)N[C@@H](Cc2ccc(O)cc2)C(=O)NCC(N)=O)NC(=O)[C@H](CC(N)=O)NC(=O)[C@H](CCC(N)=O)NC1=O [Example 32] (GYIQNE[Sar]YG-NH2; lactam N-6)	5.70

Task: # input molecule: CC[C@H](C)[C@@H]1NC(=O)[C@H](Cc2ccc(O)cc2)NC(=O)CNC(=O)CC[C@@H](C(=O)N(C)CC(=O)N[C@@H](CCC(N)=O)C(=O)NCC(N)=O)NC(=O)[C@H](CC(N)=O)NC(=O)[C@H](CCC(N)=O)NC1=O [Example 31] (GYIQNE[Sar]QG-NH2; lactam N-6) ; wanted: its pEC50
Output: 5.57

Task: # input molecule: CC[C@H](C)[C@@H]1NC(=O)[C@H](Cc2ccc(O)cc2)NC(=O)CNC(=O)CC[C@@H](C(=O)N(C)CC(=O)N[C@@H](Cc2c[nH]cn2)C(=O)NCC(N)=O)NC(=O)[C@H](CC(N)=O)NC(=O)[C@H](CCC(N)=O)NC1=O [Example 34] (GYIQNE[Sar]HG-NH2; lactam N-6) ; wanted: its pEC50
Output: 6.84
